# procedureText: physchem
# studyConditions: octan-1-ol/water, pH 7.4, LogD7.4
Labelling field: enter 1.0 if recorded logD is less than 2. Enter 0.0 if it equals or exceeds that cut-off.

compound: O=C(COc1ccc(OCCNCC(O)COc2ccccc2)cc1)NCCO (centres undefined)
assignedLabel: 1.0

compound: COCCOc1ccc(C(=O)Nc2cc(NC(=O)c3cccc(N(C)C)c3)ccc2C)cc1
assignedLabel: 0.0

compound: N#Cc1cnn(-c2ccccc2)c1NC(=O)CN1CCN(c2ccccc2)CC1
assignedLabel: 0.0

compound: COc1ccc(N(C(=O)c2ccccc2)C(C)C(=O)NC2CCCC2)c(OC)c1 (centres undefined)
assignedLabel: 0.0

compound: O=C(CO)N1CCC(c2[nH]nc(-c3ccc(Cl)cc3F)c2-c2ccncn2)CC1
assignedLabel: 1.0

compound: CNC(=O)c1nc(-c2ccc(Cl)c(S(=O)(=O)Nc3cccc(F)c3F)c2)cnc1N
assignedLabel: 0.0

compound: C[C@@](Cc1ccc(O)c(O)c1)(NN)C(=O)O [CARBIDOPA ANHYDROUS]
assignedLabel: 1.0

compound: CC(C)C(NC(=O)Cn1c(-c2ccccc2)ccc(NC(=O)Cc2ccccc2C(=O)O)c1=O)C(=O)C(F)(F)F (centres undefined)
assignedLabel: 1.0

----------
# procedureText: in vitro
# studyConditions: human, liver microsomes
Tick yes (1) if microsomal CLint is 20 µL/min/mg or greater. Tick no (0) if microsomal CLint is less than 20 µL/min/mg.

compound: CS(=O)(=O)c1ccc(-c2nnc(/C=C/c3nnc(-c4ccc(C#N)cc4)o3)n2-c2ccccc2Cl)nc1
assignedLabel: no (0)

compound: Cc1cc(C)nc(SCC(=O)Nc2cc(C)on2)n1
assignedLabel: yes (1)

compound: C[C@@H](C(=O)NCCN1CCCC1)c1ccc(OS(=O)(=O)C(F)(F)F)cc1
assignedLabel: no (0)

compound: COc1ccc(C)c(NC(=O)CC23CC4CC(CC(C4)C2)C3)c1
assignedLabel: yes (1)

compound: O=C(O)c1ccc(CN2CCC(CN3CCC(Oc4ccc(Cl)c(Cl)c4)CC3)CC2)cc1
assignedLabel: no (0)

compound: Cc1c(Cl)ccc(OC2CCN(C[C@H](O)CNC(=O)c3c[nH]nc3C(F)(F)F)CC2)c1Cl
assignedLabel: no (0)

compound: O=C(O)c1cccc(N2CCC(CN3CCC(Oc4ccc(Cl)c(Cl)c4)CC3)CC2)c1
assignedLabel: no (0)

compound: O=C(NCC12CC3CC(CC(C3)C1)C2)c1c(Cl)ccc2nc(N3CCC[C@H](NCCc4nnn[nH]4)C3)ccc12
assignedLabel: no (0)

compound: O=C(NC[C@@H](O)CN1CCC(Oc2ccc(Cl)c(Cl)c2)CC1)c1n[nH]c2ccccc12
assignedLabel: no (0)

compound: Cc1c(C(=O)Nc2ccccc2)sc2ncnc(O)c12
assignedLabel: no (0)

compound: COc1cccc(NC(=O)CC23CC4CC(CC(C4)C2)C3)c1C
assignedLabel: yes (1)

compound: Clc1cccc(-c2cnc3ccc(NC4CCOCC4)nn23)c1
assignedLabel: no (0)

compound: O=C(C1CCN(c2nnc(-n3cccc3)s2)CC1)N1CCN(Cc2ccc3c(c2)OCO3)CC1
assignedLabel: yes (1)

compound: Cc1cc(F)ccc1OC1CCN(CC2CCN([C@@H](Cc3ccc(F)cc3)C(=O)O)CC2)CC1
assignedLabel: no (0)

compound: CCN(C(=O)Cc1ccc(S(C)(=O)=O)cc1)C1CCN(CCC(c2ccccc2)c2ccc(NC(C)=O)cc2)CC1 (stereo unspecified)
assignedLabel: no (0)

compound: CC#C[C@]1(O)CC[C@H]2[C@@H]3CCC4=CC(=O)CCC4=C3[C@@H](c3ccc(N(C)C)cc3)C[C@@]21C
assignedLabel: yes (1)

compound: O=C(CCc1ccccc1O)Nc1ccccc1
assignedLabel: yes (1)

compound: c1ccc2c(c1)[nH]c1cnccc12
assignedLabel: yes (1)

compound: O=c1[nH]c2c(O)ccc([C@@H](O)CNCCSCCCNCCc3ccccc3)c2s1
assignedLabel: no (0)

compound: Cc1cc(Oc2ccc3c(c2)OCO3)nc(Oc2ccc(-n3ccnc3)cc2)n1
assignedLabel: no (0)

compound: Cc1ccc(S(=O)(=O)Nc2c(C(=O)NC3CCCCC3C)c(C)nn2-c2ccccc2)cc1 (stereo unspecified)
assignedLabel: yes (1)

compound: Cc1cc(N(C)S(C)(=O)=O)ccc1-c1cc(C(F)(F)F)ccc1OCC(=O)O
assignedLabel: no (0)

compound: C[C@@H]1CN(Cc2ccc(F)cc2)CCN1C(=O)COc1ccc(Cl)cc1NC(N)=O [BX 471 FREE BASE]
assignedLabel: yes (1)

compound: C[C@H](CO)Nc1nc(SCc2ccccc2)nc2[nH]c(=O)sc12
assignedLabel: no (0)

compound: O=C(NS(=O)(=O)c1ccccc1Cl)N1CCC(N2CCC(Oc3ccc(Cl)c(Cl)c3)CC2)CC1
assignedLabel: no (0)

compound: COc1ccc(OC)c(CNc2[nH]nc3cccc(Oc4ccc(S(C)(=O)=O)cc4)c23)c1
assignedLabel: yes (1)

compound: CS(=O)(=O)Nc1ccc(CCOCCCS(=O)(=O)CCNCCc2ccc(O)c3nc(O)sc23)cc1
assignedLabel: yes (1)

compound: O=c1ncn2nc(Sc3ccc(F)cc3F)ccc2c1-c1c(Cl)cccc1Cl
assignedLabel: no (0)

compound: Cc1ccc(S(=O)(=O)Nc2c(C(=O)NC3CCCCC3C)cnn2-c2ccccc2)cc1 (stereo unspecified)
assignedLabel: yes (1)

compound: Nc1ncnc2c1ncn2[C@@H]1O[C@H](CSCCCNC(=O)Nc2ccc(Cl)cc2)[C@@H](O)[C@H]1O
assignedLabel: yes (1)

----------
A collection of molecules and their measured logD
# procedureText: physchem
# studyConditions: octan-1-ol/water, pH 7.4, LogD7.4
readout: logD

molecule: CCCNC(=O)c1nnc2c(-c3ncccn3)c(F)ccc2c1N
quantitativeReadout: 2.07

molecule: O=C(NCc1ccncc1)c1ccc(Oc2ccccc2)cc1
quantitativeReadout: 3.26

molecule: Cc1cccc(Nc2ccncc2S(=O)(=O)NC(=O)NC(C)C)c1 [TORSEMIDE]
quantitativeReadout: 0.3

molecule: OCCn1cc(-c2cnc3nnn(Cc4ccc5ncccc5c4)c3n2)cn1 [PF-04217903]
quantitativeReadout: 1.7

molecule: CN[C@@H](C)C(=O)N[C@H](C(=O)N[C@H]1CCCN(CCc2cccc(F)c2)C1)C1CCCCC1
quantitativeReadout: 2.64

molecule: CN1CCN(c2nc(NCCNc3ccc([N+](=O)[O-])cc3)c3ccccc3n2)CC1
quantitativeReadout: 2.91

molecule: Cc1cn([C@H]2CCCN(S(=O)(=O)c3ccc(C(N)=O)c(Oc4cccc(Cl)c4)c3)C2)c(=O)[nH]c1=O
quantitativeReadout: 1.96

----------
# procedureText: in vitro
# studyConditions: hepatocytes
readout: hepatocyte CLint (µL/min/1e6 cells)

compound: Cc1[nH]c2ccc(-c3nnc(SCC(=O)N4CCCc5ccccc54)o3)cc2c1C
op: >
quantitativeReadout: 150
--
compound: CCOC(=O)/C=C/[C@H](C[C@@H]1CCNC1=O)NC(=O)[C@@H](CC(=O)[C@@H](NC(=O)c1cc(C)on1)C(C)C)Cc1ccc(F)cc1
op: >
quantitativeReadout: 150
--
compound: O=C(O)COc1ccc(C(F)(F)F)cc1CN1CCN(S(=O)(=O)c2ccccc2)CC1
op: <
quantitativeReadout: 3
--
compound: Cc1ccccc1C(OCCN(C)C)c1ccccc1 (configuration not stated)
op: >
quantitativeReadout: 150
--
compound: COc1ccccc1CN1C(=O)c2ccccc2C1C(=O)NC1CCC(C)CC1 (configuration not stated)
op: >
quantitativeReadout: 150
--
compound: COc1cc(NC(=O)c2ccccn2)ccc1Cl
op: >
quantitativeReadout: 150
--
compound: O=c1c2c3n(c(=O)cc2[nH]n1-c1ccccc1Cl)CCCN(Cc1ccccc1)C3
op: <
quantitativeReadout: 3
--
compound: CNc1nc(C)c(-c2nc(Nc3cccc(N4CCCCC4)c3)ncc2C#N)s1
op: >
quantitativeReadout: 150
--
compound: Cc1ccc(S(=O)(=O)Nc2c(C(=O)NC3CCCCC3C)c(C)nn2-c2ccccc2)cc1 (configuration not stated)
op: =
quantitativeReadout: 17
--
compound: CS(=O)(=O)c1ccc([C@@H](CC2CCCC2)C(=O)Nc2nccs2)cc1
op: =
quantitativeReadout: 20.9
--
compound: CC1(C)[C@@H]2CC[C@@]1(CS(=O)(=O)N1CCN(c3ccc(C(F)(F)F)cn3)CC1)C(=O)C2
op: =
quantitativeReadout: 141
--
compound: CCCCNc1cc(C(=O)O)cc(S(N)(=O)=O)c1Oc1ccccc1 [BUMETANIDE]
op: =
quantitativeReadout: 145
--
compound: C[C@@H](NC(=O)C1CCNCC1)c1ccc(Nc2ncc3cc(-c4ccncc4)ccc3n2)cc1
op: <
quantitativeReadout: 3
--
compound: CCC1(CCC(C)C)C(=O)NC(=O)NC1=O
op: =
quantitativeReadout: 11.8
--
compound: O=C(O)CCc1ccc(OCc2cccc(Oc3ccccc3)c2)cc1
op: =
quantitativeReadout: 97.7
--
compound: Cc1ccc(CO)cc1N(C)c1ccnc(Nc2cc(N3CCOCC3)cc(N3CCOCC3)c2)n1
op: =
quantitativeReadout: 31.6
--
compound: O=C(O)c1cncc(-c2ccc(Cl)c(C(=O)NCC34CC5CC(CC(C5)C3)C4)c2)c1
op: =
quantitativeReadout: 7
--
compound: COc1ccc(C#Cc2ccc([C@@H]3[C@H](CO)N4CCCCN(C(=O)Nc5cccc(F)c5)C[C@@H]34)cc2)cc1
op: =
quantitativeReadout: 18.2
--
compound: CCC(CC)NC(=O)c1cnn(C)c1NS(=O)(=O)c1ccc(C)cc1
op: =
quantitativeReadout: 27
--
compound: Cc1c[nH]c(-c2cnc(NCCNc3ccc(C#N)cn3)nc2-c2ccc(Cl)cc2Cl)n1
op: =
quantitativeReadout: 108
--
compound: CCn1c(C)c(C(=O)O)c(-c2cccc(N3CCN(c4ccc(NS(=O)(=O)c5ccc(N[C@H](CCN6CCC(O)CC6)CSc6ccccc6)c(S(=O)(=O)C(F)(F)F)c5)cc4)CC3)c2)c1-c1ccc(Cl)cc1
op: =
quantitativeReadout: 17.4
--
compound: Cc1cc(CN(CC(=O)Nc2ccc(Cl)cc2Cl)C2CCCCC2)ccc1OCC(=O)O
op: =
quantitativeReadout: 43.4
